Tested on: HCC-2998 colon
Assay: NCI tumour cell line growth inhibition, 48 h
Property: TGI

Quick check: TGI of COc1ccc(/C=C2/N=C(N/N=C\C(O)C(O)C(O)C(O)CO)NC2=O)cc1 (stereo not drawn) ?
> 100 µM

Please give the result for Cn1c(=O)c2c(nc3sc4nc5ccccc5nc4n32)n(C)c1=O too.
> 100 µM

Consider next the compound CCC(=C(C#N)C#N)c1cc(OC)c(OC)c(OC)c1 in the same way.
> 100 µM

Could you do the same for CCOc1cc2c[n+](C)c3c4cc(OC)c(OC)cc4ccc3c2cc1OC , please?
> 100 µM

Field entry: O=C(CCN1CCCC1)CC(c1ccccc1)c1c(O)c2ccccc2oc1=O (stereo not drawn)
> 100 µM

Try this compound too: O=c1c2cccnc2[nH]c2ccc3[nH]ncc3c12
> 10 µM

Same lookup for CCOC(=O)/C=C/C1=C(c2csc3ccccc23)c2ccccc2CC1 , please.
> 100 µM

CN(C)c1ccc(/C=C2\Oc3ccccc3C2=O)cc1 ?
> 100 µM

Request: CCOP(=O)(OCC)/C(C#N)=C/c1cnc(C)[nH]1
> 100 µM

Same read-out for N#CC(=N)c1ncn(CCO)c1NC(=O)C(F)(F)F ?
> 100 µM

For CN(C(=O)CC(=O)CP(=O)(c1ccccc1)c1ccccc1)c1ccccc1 then?
> 100 µM

Do the same for O=C(/C=C/c1ccc(OCCSCCCCCCCCCCSCCOc2ccc(/C=C/C(=O)c3ccc(Cl)cc3)cc2)cc1)c1ccc(Cl)cc1 please
> 100 µM

Now try COc1cccc(/C=N/Nc2ncnc3c2cnn3-c2cccc(OC)c2)c1 .
> 25 µM

###

Tested on: SF-295 CNS
Experiment: NCI tumour cell line growth inhibition, 48 h
Property: TGI

Which measured TGI value corresponds to C/C(O)=C/c1nc2ccccc2[nH]1 ?
> 100 µM

Repeat for the following compound: N#Cc1c(N)nc(Nc2cccc3ccccc23)c(C#N)c1C#N
> 10 µM

Try the compound O=C(OCCN=C1c2ccccc2CCc2ccccc21)c1ccccc1
> 100 µM

Field entry: Cc1ccc2nc(NC(=O)C(=O)C3C(=O)NC(=S)NC3=O)sc2c1
> 100 µM

Item: C[C@]12CCC3c4ccc(O)cc4CCC3C1CC[C@@]2(O)C#Cc1ccc(C#C/C=C\C#Cc2ccccc2N)cc1 (stereo partly specified)
> 100 µM

Would you mind doing O=C(O)C1CCCN1C(=O)c1cc(Cl)ccn1 (stereo unspecified) as well?
> 100 µM

What do we get for NC(CSS(=O)(=O)c1ccccc1)C(=O)O (stereo unspecified) ?
> 10 µM

Also, COC1CC(C)(N)C(O)C(C)O1 (stereo unspecified) please.
> 100 µM

Okay, and CCC1=C(c2ccc(OC)cc2)CC[C@@]2(CCNC2=O)[C@@H]1C ?
> 100 µM

What would you report for O=C(O)c1ccccc1CC1Cc2ccccc2C1 ?
> 100 µM

Entry to check: CC(=O)OCC1OC(n2c(-c3cccs3)c3c(c(C#N)c2=S)-c2ccccc2CC3)C(OC(C)=O)C(OC(C)=O)C1OC(C)=O (stereo unspecified)
> 55.8 µM

###

System: HT29 colon
Assay: NCI tumour cell line growth inhibition, 48 h
Property: TGI

Form field - read-out: TGI; system: HT29 colon; submitted item: Cn1cc(C2=C(c3cn(CCCO)c4ccccc34)C(=O)NC2=O)c2ccccc21
> 19.3 µM

Again, but for O=c1c2cccnc2[nH]c2ccc3[nH]ncc3c12
> 10 µM

Please answer likewise for CCc1n[nH]c(=O)n1NC(=O)CCCC(=O)O
> 100 µM

###

Tested on: SK-MEL-5 melanoma
Assay: NCI tumour cell line growth inhibition, 48 h
Give TGI for every item shown.

Would you kindly share the measured TGI for FC(F)(F)c1ccc(-c2cncn2-c2ccccc2)cc1 ?
26.9 µM

And CC(=O)Oc1ccc(O)c2c1CCCC2 ?
> 63.3 µM

Try the molecule N#CC1(C#N)C2=C(CCCC2)NC(c2ccc(Br)cc2)C1(C#N)C#N (centres undefined)
28.8 µM

Follow-up item: Cc1cc(C)c2cc(N)c(Cl)nc2n1
> 100 µM

Would you kindly repeat that for COc1ccc(/C=C/C(=O)c2cccc(B(O)O)c2)cc1O ?
14.9 µM

Next molecule up: CCC(C(C)N1CC(=O)NC(=O)C1)N1CC(=O)NC(=O)C1 (centres undefined)
> 100 µM

Another: Cc1cc(C)c2c(=O)n(CN3CCC(C#N)(c4ccccc4)CC3)sc2n1
> 100 µM

Same read-out for Cc1nn2c(C(=O)N/N=C/c3ccccc3O)c(C)nc2s1 ?
> 100 µM

Same read-out for O=C(C[Si](CC(=O)c1cccc(C(F)(F)F)c1)CC(=O)c1cccc(C(F)(F)F)c1)c1cccc(C(F)(F)F)c1 ?
3.03 µM

How about COc1ccc(/C=N/C2=C(C#N)C(c3ccccc3)c3c(ccc4ccccc34)O2)cc1 (centres undefined) ?
18.2 µM

Try this molecule too: COc1ccc2c(c1)c(=O)c1c(NCCN(C)C)ccc3c(=O)n(CCN(C)C)c(=O)n2c31
0.594 µM

What do you get for COc1ccc(/C=C/C(=O)c2sc(NC(=S)NC(=O)c3ccccc3F)nc2C)cc1OC ?
> 100 µM

// same read-out, input: CCOC(=O)/C=C/C1=C(c2csc3ccccc23)c2ccccc2CC1
> 100 µM

Cool, now CC(C)(N=NC(C)(C)C(=N)N)C(=N)N
> 100 µM

What about this molecule? Cn1ccnc1Sc1ccc(/C=N/NC(=O)c2ccccc2[N+](=O)[O-])cc1[N+](=O)[O-]
> 100 µM

Next molecule: COC(=O)C12CCC(C(F)(F)C1=O)C2(C)C (centres undefined)
> 100 µM

Query COC(=O)C1=C2SCc3ccc(cc3)CSC3=C(C(=O)OC)SC(=C(S2)S1)S3 next
> 100 µM

Follow-up entry: CNc1nc(SC)nc2c1c(N)nn2C
> 100 µM

Repeat with N#CC(=N)c1ncn(CCO)c1NC(=O)C(F)(F)F
> 100 µM

Also need O=C1c2ccccc2C(=O)c2c(N=Nc3[nH]c(=S)[nH]c3O)cccc21 , thanks.
> 100 µM

Entry to check: C[C@@H]1CCC[C@]2(C)O[C@H]2CC[C@@](C)(O)[C@@H]2CC3=C(CO)C(=O)O[C@H]3[C@H]1O2
> 50 µM

Now consider COC(=O)[C@]12CSCN1C(=O)C(C(C)=O)=NN2C(=O)[C@](OC)(c1ccccc1)C(F)(F)F and answer again.
> 100 µM

Now give it for c1ccc2c(c1)SC1=Nc3sc4ccccc4[n+]3CN12 too.
10.9 µM

Same for COc1cccc(NC(=O)CC(=O)N2NC(c3ccccc3)C(N=Nc3cccc(C(=O)O)c3)C2=O)c1 (centres undefined)
> 100 µM

###

Assign TGI to each entry below.
Test system: 786-0 renal
Assay: NCI tumour cell line growth inhibition, 48 h

Give its TGI value. Item: CN1CCN(c2ccc3nc(-c4c5cccccc-5[nH]c4=O)[nH]c3c2)CC1
46.6 µM

c1ccc([P+](CCN2Cc3ccccc3C2)(c2ccccc2)c2ccccc2)cc1 , same question.
44.4 µM

Subsequent entry: O=C(/C=C/c1ccc(OCCSCCCCCCCCCCSCCOc2ccc(/C=C/C(=O)c3ccc(Cl)cc3)cc2)cc1)c1ccc(Cl)cc1
> 100 µM

For COc1ccc(OC)c(N2C(=O)/C(=C\c3ccccc3)SC2c2cc(OC)c(OC)c(OC)c2)c1 (stereo unspecified) then?
> 100 µM

Also Cc1ccc2c(c1)C(=O)c1[nH]c3ccc(F)cc3c1CO2 ?
> 100 µM

Entry COC(=O)C(N)CSC(c1ccccc1)(c1ccccc1)c1ccccc1 (stereo unspecified) please
86.5 µM

Try this compound too: CC(=O)NC1C(OCc2ccccc2)OC(CO)C(O)C1OCC(=O)N1CCCC1C(=O)N[C@@H](CCC(=O)NCCNCCNc1c2ccccc2nc2cccc([N+](=O)[O-])c12)C(N)=O (stereo partly specified)
9.17 µM

Could you do the same for NC(N)=C1CN(C2CCCCC2)C(=O)NC1=O , please?
> 100 µM

Now this one: O=C1c2ccccc2CCC1C(O)(C(F)(F)F)C(F)(F)F (stereo unspecified)
> 100 µM

Moving on to the next compound: O=C1CC(c2ccccc2Cl)Oc2ccccc21 (stereo unspecified)
89.5 µM

Record: N#CC1(C#N)C2=C(CCCC2)NC(c2ccc(Br)cc2)C1(C#N)C#N (stereo unspecified)
3.75 µM

Same lookup for Cc1cc(O)c2c3c1C(=O)Oc1c(CO)c(O)c(C(=O)O)c(c1O3)C=NN=Cc1c3c(c(CO)c(O)c1C(=O)O)OC(=O)c1c(C)cc(O)c(c1O3)C=NN=C2 , please.
> 100 µM

Also CC(=NC1CCCCC1)c1ccccc1O , if possible.
> 100 µM

Also COc1ccc(C=Nc2c(O)ccc3ccccc23)cc1OC ?
> 100 µM

Another compound to look at: CC(C)(C)OC(=O)Nc1nnc(S(N)(=O)=O)s1
> 100 µM

Another compound to look at: COc1ccc(/C(=N\N=C(N)N)C(c2ccc(OC)cc2)C2OC(=O)c3ccccc32)cc1 (stereo unspecified)
> 100 µM
